- Test system: CRL-7250
- test.details: Cytotoxic Profiling of Annotated Libraries Using Quantitative High-Throughput Screening (AID 1296008); note: nearly all actives have a fitted effect of over 60% in size
- particulars: Five cell lines viability, CellTiter-Glo ATP luminescence, 48-72 h
Results filed as inconclusive are left out. Active and inactive are the calls of the source. Calls come from the whole dose curve; as a rule, active = well fitted inhibition curve with a large enough effect; inconclusive = small, poorly fitted or top-dose-only effect; inactive = flat fitted curve, though single readings scatter.
Outcome (select one): 1 = active, -1 = inactive

Past entries and their recorded results:
## Input Assay outcome for CO[C@@H]1[C@@H](O)[C@H](O)[C@@H](n2c3c(Cl)cccc3c3c4c(c5c6cccc(Cl)c6[nH]c5c32)C(=O)NC4=O)O[C@@H]1CO : what was it?
## Output 1

## Input Assay outcome for O=C(C=CC#Cc1cccc(NS(=O)(=O)c2ccccc2)c1)NO : what was it?
## Output 1

## Input Assay outcome for COC1=C2C[C@@H](C)C[C@H](OC)[C@@H](O)[C@@H](C)C=C(C)[C@H](OC(N)=O)[C@@H](OC)C=CC=C(C)C(=O)NC(=CC1=O)C2=O : what was it?
## Output 1

## Input Assay outcome for C=CCNc1c(O)cc2c(O)c1C[C@@H](C)C[C@H](OC)[C@@H](O)[C@@H](C)C=C(C)[C@H](OC(N)=O)[C@@H](OC)C=CC=C(C)C(=O)N2 : what was it?
## Output 1

## Input Assay outcome for CC(C(C)N1CC(=O)NC(=O)C1)N1CC(=O)NC(=O)C1 (stereo not given) : what was it?
## Output -1

## Input Assay outcome for Cc1cnc(Nc2ccc(N3CCN(C)CC3)cc2)nc1Nc1cccc(S(=O)(=O)NC(C)(C)C)c1 : what was it?
## Output 1

Consider the record given below.
## Input Assay outcome for CN1C(C(=O)Nc2ccccn2)=C(O)c2sc(Cl)cc2S1(=O)=O : what was it?
## Output -1

----------
- test.details: High-throughput drug toxicity screening in the BPDCN cell line Cal-1 (AID 1224825);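 note: cells exposed to compounds for 48 h; 100% = DMSO and 0% = bortezomib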
- particulars: Cal-1 BPDCN cell viability, qHTS; at 45.8 µM (top of the series) unless noted
- Source text: Blastic plasmacytoid dendritic cell neoplasm (BPDCN) is a rare, aggressive and largely incurable hematologic malignancy originating from plasmacytoid dendritic cells (pDCs). Although an initial response to chemotherapy is common, BPDCN prognosis is extremely poor and most patients relapse with drug-resistant disease leading to a median overall survival of ~1 year after diagnosis. […]
property: viability (% of control) (%)
Quick note: give the figure in %, leave out the unit.

Here's what some known entries look like.
## Input Identify viability (% of control) associated with the molecule N#Cc1c(NC(=O)c2cccc3ccccc23)sc2c1CCCC2
## Output 9.83

## Input Identify viability (% of control) associated with the molecule NS(=O)(=O)OC[C@@H]1C[C@@H](n2ccc3c(N[C@H]4CCc5ccccc54)ncnc32)C[C@H]1O
## Output 2.9

## Input Identify viability (% of control) associated with the molecule COc1cccc2c1C(=O)c1c(O)c3c(c(O)c1C2=O)C[C@@](O)(C(=O)CO)C[C@H]3O[C@H]1C[C@H](N)[C@H](O)[C@H](C)O1
## Output 4.57

New cases:
## Input Identify viability (% of control) associated with the molecule Oc1ccc([C@@H]2Oc3ccc(O)cc3[C@@H]3CCC[C@@H]32)cc1
## Output 14.4

## Input Identify viability (% of control) associated with the molecule CCCCCCCN(CC)CCCC(O)c1ccc(NS(C)(=O)=O)cc1 (centres undefined)
## Output 81.4

## Input Identify viability (% of control) associated with the molecule CCc1nc(-c2cccc(C)c2)c(-c2ccnc(NC(=O)c3ccccc3)c2)s1
## Output 25.7

## Input Identify viability (% of control) associated with the molecule CC(C)c1cc(C(C)C)c(CC(=O)NS(=O)(=O)Oc2c(C(C)C)cccc2C(C)C)c(C(C)C)c1
## Output 60.9

## Input Identify viability (% of control) associated with the molecule Cn1cc(C=CC(=O)c2cccc(F)c2)cc1C=CC(=O)NO
## Output 4.87
